biological target: Ras and Rab interactor 1/Tyrosine-protein kinase ABL1 (Homo sapiens, UniProt P00519+Q13671); format: functional;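 also: biochemical TR-FRET dose-response test measuring inhibition of binding between Rin1 and Abl proteins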
Sequence (P00519 whole entry): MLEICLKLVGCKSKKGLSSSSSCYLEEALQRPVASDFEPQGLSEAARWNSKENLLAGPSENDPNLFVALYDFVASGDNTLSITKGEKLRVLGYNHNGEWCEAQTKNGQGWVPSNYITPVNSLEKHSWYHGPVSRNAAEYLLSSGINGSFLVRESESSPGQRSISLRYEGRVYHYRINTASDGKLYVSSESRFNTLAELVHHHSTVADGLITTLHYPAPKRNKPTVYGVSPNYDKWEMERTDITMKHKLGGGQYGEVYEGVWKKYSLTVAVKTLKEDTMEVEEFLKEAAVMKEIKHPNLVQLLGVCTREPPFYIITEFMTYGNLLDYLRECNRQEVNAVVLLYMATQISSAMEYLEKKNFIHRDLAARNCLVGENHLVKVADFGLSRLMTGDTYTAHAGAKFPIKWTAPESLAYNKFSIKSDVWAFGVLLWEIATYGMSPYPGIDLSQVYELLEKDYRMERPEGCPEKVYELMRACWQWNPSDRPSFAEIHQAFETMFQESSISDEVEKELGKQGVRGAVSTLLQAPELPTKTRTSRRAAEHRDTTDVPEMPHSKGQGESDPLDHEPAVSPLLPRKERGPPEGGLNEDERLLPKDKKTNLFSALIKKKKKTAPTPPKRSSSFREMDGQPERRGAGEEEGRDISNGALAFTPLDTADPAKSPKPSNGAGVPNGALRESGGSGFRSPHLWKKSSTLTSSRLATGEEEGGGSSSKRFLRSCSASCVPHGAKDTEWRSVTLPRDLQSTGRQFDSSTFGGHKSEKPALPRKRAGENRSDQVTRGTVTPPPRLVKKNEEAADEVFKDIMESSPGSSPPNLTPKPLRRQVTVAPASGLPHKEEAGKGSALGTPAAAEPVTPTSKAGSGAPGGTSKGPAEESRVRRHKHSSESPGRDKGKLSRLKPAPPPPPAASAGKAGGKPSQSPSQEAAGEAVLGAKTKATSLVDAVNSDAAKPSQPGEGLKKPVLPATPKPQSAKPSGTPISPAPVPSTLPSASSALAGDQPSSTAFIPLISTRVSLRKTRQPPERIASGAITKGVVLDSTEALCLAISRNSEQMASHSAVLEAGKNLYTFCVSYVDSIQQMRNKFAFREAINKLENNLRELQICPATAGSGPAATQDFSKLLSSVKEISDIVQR
Sequence (Q13671 whole entry): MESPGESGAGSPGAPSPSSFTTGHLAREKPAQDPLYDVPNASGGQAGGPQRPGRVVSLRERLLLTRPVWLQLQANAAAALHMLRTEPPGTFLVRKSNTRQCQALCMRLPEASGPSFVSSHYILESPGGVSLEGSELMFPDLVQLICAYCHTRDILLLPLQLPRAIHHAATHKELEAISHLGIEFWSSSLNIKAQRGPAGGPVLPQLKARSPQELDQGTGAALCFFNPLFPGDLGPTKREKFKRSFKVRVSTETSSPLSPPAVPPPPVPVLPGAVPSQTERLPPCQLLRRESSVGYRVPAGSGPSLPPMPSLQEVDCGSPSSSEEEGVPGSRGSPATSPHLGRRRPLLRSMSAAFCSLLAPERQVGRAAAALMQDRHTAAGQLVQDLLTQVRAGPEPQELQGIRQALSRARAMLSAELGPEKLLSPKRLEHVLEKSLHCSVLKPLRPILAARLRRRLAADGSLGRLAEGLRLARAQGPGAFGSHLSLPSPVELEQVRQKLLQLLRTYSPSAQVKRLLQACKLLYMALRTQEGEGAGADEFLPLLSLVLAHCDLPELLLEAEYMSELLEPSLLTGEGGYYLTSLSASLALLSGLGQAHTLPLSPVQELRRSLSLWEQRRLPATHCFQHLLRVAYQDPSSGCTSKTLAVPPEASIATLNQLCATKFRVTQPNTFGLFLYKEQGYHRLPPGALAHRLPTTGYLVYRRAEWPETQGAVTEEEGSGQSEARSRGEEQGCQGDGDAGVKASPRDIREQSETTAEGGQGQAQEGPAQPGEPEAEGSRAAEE
Active and inactive are the calls of the source.
Parameter call: string, one of active, inactive

Problem: Dear all, I need the recorded test outcome for `CN(C(=O)c1ccc(NC(=O)Cc2cccc(NC(=O)C3CCN(C(=O)C4CCCC4)CC3)c2)cc1)C1CC1` , thank you.
Solution: inactive

###

biological target: SUMO-activating enzyme (Homo sapiens, UniProt Q9UBT2); experiment: blockers of SAE1/SAE2–UBC9 SUMO transfer – biochemical, HTRF, uHTS, primary screen (AID 2006); assay type: protein-complex assay
Sequence (Q9UBE0 whole entry): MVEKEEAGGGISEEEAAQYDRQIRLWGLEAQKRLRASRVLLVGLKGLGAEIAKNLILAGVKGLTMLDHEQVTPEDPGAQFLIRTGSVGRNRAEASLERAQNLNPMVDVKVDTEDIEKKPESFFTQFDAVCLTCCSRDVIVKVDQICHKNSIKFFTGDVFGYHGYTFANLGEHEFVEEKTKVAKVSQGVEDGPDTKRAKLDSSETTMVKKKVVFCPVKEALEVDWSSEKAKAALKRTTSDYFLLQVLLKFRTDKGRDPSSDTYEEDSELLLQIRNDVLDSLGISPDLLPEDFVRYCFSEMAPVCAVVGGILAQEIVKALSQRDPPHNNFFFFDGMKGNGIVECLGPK
Sequence (Q9UBT2 whole entry): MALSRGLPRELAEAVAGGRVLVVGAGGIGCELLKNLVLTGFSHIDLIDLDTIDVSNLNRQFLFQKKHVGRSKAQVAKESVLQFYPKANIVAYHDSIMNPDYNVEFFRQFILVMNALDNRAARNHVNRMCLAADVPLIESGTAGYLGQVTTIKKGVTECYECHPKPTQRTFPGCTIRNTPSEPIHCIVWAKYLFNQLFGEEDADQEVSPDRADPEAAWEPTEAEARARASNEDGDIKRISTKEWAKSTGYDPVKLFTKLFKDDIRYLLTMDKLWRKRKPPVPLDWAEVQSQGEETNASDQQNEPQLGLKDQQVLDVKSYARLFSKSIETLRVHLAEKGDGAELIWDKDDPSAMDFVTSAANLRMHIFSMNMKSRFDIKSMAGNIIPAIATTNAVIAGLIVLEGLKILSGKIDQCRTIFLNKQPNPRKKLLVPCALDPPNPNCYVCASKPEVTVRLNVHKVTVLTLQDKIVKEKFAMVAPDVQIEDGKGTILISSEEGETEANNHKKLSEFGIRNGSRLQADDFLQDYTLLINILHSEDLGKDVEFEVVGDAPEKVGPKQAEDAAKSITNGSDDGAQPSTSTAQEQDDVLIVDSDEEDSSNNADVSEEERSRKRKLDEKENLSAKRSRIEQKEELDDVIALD
Calls of active or inactive are those of the source.
Catalogue of compounds with associated IC50

Previously resolved entries follow.
1. O=C(N/N=C/c1ccc([N+](=O)[O-])o1)c1cc2c(ccc3ccccc32)o1 ... 11 µM (active)
2. O=C(N/N=C/c1ccc(-c2cccc([N+](=O)[O-])c2)o1)c1ccccc1O ... 15.9 µM (active)
3. Cc1ccc(C2=NN(C(=O)CCC(=O)O)C(c3cn(-c4ccccc4)nc3-c3ccc(C)cc3)C2)cc1 (centres undefined) ... 20.1 µM (active)

Pending compound:
Problem: I'd like to know its IC50. The compound in question is `CN(C)c1cc(Cl)c2nonc2c1N`
Solution: 16.2 µM (active)

###

Catalogue of molecules with associated IC50
target: UniProtKB P42574; assay type: functional
Activity calls are given as the source filed them.

Previously resolved entries follow.
1. Cc1ccc(C(=O)Nc2nc(C)c(C(=O)Nc3ccc4c(c3)CCC4)s2)cc1 ... 19.8 µM (active)
2. COc1ccc(/C=N/Nc2nncc3ccccc23)c(OC)c1 ... 7.23 µM (active)

Problem: Give UniProtKB P42574 IC50 for `O=C(N/N=C/c1cccc(Oc2ccccc2)c1)c1cccc(O)c1`
Solution: 31.2 µM (active)

Problem: And `Oc1nc(Nc2ccccc2Cl)cc2ccccc12` ?
Solution: 4.42 µM (active)

###

molecular target: Prothrombin (Homo sapiens); test: Thrombin 1536 HTS Dose Response Confirmation. [Related pubchem assays: 1046 (Thrombin 1536 HTS; hits were confirmed in this assay)]; format: functional
Calls of active or inactive are those of the source.
Measurement Type: IC50

Previously resolved entries follow.
1. COCC(=O)n1nc(-c2ccccc2)nc1NCc1ccc(F)cc1 ... 0.103 µM (active)
2. CCOc1cc(S(=O)(=O)N2CCCCC2)ccc1Cl ... > 50 µM (not active)
3. CCN(CC)Cc1ccccc1Sc1ccccc1 ... > 50 µM (not active)
4. CC(C)c1ccc(-c2c(C#N)c(N)nc(SCC(=O)N3CCCCCC3)c2C#N)cc1 ... > 50 µM (not active)

Problem: I'd like to know its IC50. The compound in question is `CCOC(=O)N1CCN(C(=O)c2ccccc2N(C)S(C)(=O)=O)CC1`
Solution: > 50 µM (not active)

Problem: And `Cc1cc(N2CCN(c3ccccc3)CC2)nc(-c2ccccc2)n1` ?
Solution: > 50 µM (not active)

###

assay: toxicity toward HepG2 liver cells – cell-based, plate reader, cherry-pick, antagonist series, cytotoxicity control, dose response (AID 743416); type: functional
The source made the active and inactive calls.
Parameter call: string, one of y = active, n = inactive

Problem: Dear all, I need the recorded test outcome for `N#C[C@@H]1[C@H](c2ccc(C#Cc3cccc(F)c3)cc2)[C@@H](CO)N1C(=O)C1CC1` , thank you.
Solution: y

Problem: And `C[C@H]1CN([C@@H](C)CO)C(=O)c2cc(NC(=O)Nc3ccccc3)ccc2O[C@H]1CN(C)Cc1ccc(-c2ccccc2)cc1` ?
Solution: n

Problem: And `COc1ccc(-c2nc(-c3ccccc3)no2)c(OC)c1` ?
Solution: y

Problem: And `COc1ccc(-c2coc3c(C(=O)Nc4cc(OC)c(OC)c(OC)c4)cccc23)c(C)c1` ?
Solution: y

Problem: And O=C(CCc1nnc(CCCCc2ccccc2)o1)N1CCCC(O)C1 (stereo not given) ?
Solution: n

###

Target: UniProt Q9BQF6
Sequence (Q9BQF6 whole entry): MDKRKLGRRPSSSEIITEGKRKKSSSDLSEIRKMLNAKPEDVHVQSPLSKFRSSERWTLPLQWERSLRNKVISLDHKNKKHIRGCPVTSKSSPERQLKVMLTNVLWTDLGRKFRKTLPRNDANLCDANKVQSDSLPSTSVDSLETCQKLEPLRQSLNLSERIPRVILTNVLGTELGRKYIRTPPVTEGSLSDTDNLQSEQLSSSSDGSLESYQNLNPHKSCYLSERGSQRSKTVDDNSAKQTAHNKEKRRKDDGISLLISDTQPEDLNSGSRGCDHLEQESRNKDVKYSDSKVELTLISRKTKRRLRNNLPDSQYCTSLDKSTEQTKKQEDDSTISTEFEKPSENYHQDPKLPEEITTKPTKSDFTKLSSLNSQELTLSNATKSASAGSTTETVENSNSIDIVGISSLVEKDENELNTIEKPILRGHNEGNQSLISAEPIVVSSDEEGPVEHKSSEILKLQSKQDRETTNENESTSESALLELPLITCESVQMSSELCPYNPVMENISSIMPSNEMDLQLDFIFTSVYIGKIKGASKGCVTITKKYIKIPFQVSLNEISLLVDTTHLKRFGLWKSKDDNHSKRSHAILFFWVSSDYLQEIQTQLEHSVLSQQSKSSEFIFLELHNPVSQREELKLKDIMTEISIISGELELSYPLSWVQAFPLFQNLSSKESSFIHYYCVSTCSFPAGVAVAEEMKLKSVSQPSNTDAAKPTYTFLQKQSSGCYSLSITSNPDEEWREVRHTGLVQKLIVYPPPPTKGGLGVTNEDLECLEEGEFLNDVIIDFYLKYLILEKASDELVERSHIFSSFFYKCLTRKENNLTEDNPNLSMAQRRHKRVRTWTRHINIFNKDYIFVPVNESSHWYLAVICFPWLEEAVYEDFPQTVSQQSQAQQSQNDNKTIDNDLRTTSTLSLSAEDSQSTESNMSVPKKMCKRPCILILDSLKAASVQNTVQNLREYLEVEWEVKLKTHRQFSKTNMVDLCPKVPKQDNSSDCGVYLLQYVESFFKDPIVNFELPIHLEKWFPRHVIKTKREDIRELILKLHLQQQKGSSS
Type: functional
Activity calls are given as the source filed them.
Catalogue of molecules with associated IC50

Previously resolved entries follow.
1) COc1ccc(/C=N/Nc2nncc3ccccc23)c(OC)c1 ... 3.46 µM (active)
2) COc1cccc(NC(=O)Nc2ccc3c(c2)CCC3)c1 ... 4.28 µM (active)
3) COc1cc2ccccc2cc1C(=O)Nc1ccccc1Cl ... 8.41 µM (active)
4) Oc1nc(Nc2ccccc2Cl)cc2ccccc12 ... 4.7 µM (active)
5) Cc1ccc(C(=O)Nc2nc(C)c(C(=O)Nc3ccc4c(c3)CCC4)s2)cc1 ... 8.21 µM (active)

Pending molecule:
Problem: I'd like to know its IC50. The molecule in question is `O=C(N/N=C/c1cccc(Oc2ccccc2)c1)c1cccc(O)c1`
Solution: 10.7 µM (active)

###

Biological target: Corticotropin-releasing factor receptor 2/Corticotropin-releasing factor-binding protein (Homo sapiens, UniProt P24387+Q13324)
Sequence (Q13324 whole entry): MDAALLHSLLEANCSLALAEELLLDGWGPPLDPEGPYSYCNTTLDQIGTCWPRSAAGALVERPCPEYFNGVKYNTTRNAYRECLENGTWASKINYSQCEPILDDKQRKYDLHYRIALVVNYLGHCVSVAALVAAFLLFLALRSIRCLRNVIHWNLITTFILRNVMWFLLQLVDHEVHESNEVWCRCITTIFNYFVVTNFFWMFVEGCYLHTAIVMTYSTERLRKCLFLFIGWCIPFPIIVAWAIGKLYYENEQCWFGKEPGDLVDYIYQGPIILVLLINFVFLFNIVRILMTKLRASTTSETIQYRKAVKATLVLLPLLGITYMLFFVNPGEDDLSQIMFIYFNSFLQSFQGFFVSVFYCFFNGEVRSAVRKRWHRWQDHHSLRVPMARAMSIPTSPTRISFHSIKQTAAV
Sequence (P24387 whole entry): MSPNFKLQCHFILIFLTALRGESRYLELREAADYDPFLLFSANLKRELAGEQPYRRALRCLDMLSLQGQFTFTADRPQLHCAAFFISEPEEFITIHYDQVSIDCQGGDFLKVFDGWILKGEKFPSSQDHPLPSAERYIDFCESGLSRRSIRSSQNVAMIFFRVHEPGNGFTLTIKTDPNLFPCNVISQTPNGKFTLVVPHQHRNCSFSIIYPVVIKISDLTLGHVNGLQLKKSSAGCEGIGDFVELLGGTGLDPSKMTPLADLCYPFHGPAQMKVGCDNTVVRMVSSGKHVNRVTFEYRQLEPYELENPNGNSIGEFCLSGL
Assay: activators of CRF receptor 2 with binding protein – uHTS hits, confirmation (AID 602473)
Assay type: functional
Conditions: read-out: EC50_Mean
Calls of active or inactive are those of the source.
Parameter call: string, one of active, inactive

Solved cases (6 shown):
1) CCOc1ccc(OCCSc2nc(N)cc(=O)[nH]2)cc1 ... inactive
2) CCN(Cc1ccccc1)C(c1cccc(C#N)c1)c1nnnn1C(C)(C)C (configuration not stated) ... inactive
3) Cc1nn(C(=O)c2c(-c3ccccc3)noc2C)c(C)c1N=Nc1cc(C(F)(F)F)cc(C(F)(F)F)c1 ... inactive
4) O=C(O)CCNc1nc(-c2ccccc2)c2cc(Br)ccc2n1 ... active
5) NC(=NOC(=O)COc1ccc(Br)cc1)c1ccncc1 ... inactive
6) COc1ccc(OC)c(CN2CCN(S(=O)(=O)c3ccc(NC(C)=O)cc3)CC2)c1 ... inactive

Problem: Dear all, I need the recorded test outcome for CCC(C(=O)NCCN1CCOCC1)n1c2ccccc2c2nc(=O)cc(C)n21 (configuration not stated) , thank you.
Solution: inactive

Problem: And `O=C1NC(=O)N(c2ccc(F)cc2)C(=O)/C1=C/c1c[nH]c2ccccc12` ?
Solution: active

Problem: And `CCCCCn1/c(=N/C(=O)c2cccnc2)c(C#N)cc2c(=O)n3cccc(C)c3nc21` ?
Solution: inactive

Problem: And Cc1c(C(=O)N2CC(C(=O)N3CCCCC3)Oc3ccccc32)oc2ccccc12 (configuration not stated) ?
Solution: inactive

Problem: And COc1ccc(OC2C(=O)N(c3cc(C)ccc3C)C2c2ccc(OC)c(OC)c2)cc1 (configuration not stated) ?
Solution: inactive

Problem: And CCOc1ccccc1N1CCN(C(=O)C2CSC3(C)CCC(=O)N23)CC1 (configuration not stated) ?
Solution: inactive

meta.source: ChEMBL document CHEMBL1201862
